Data origin, for the record: ChEMBL document CHEMBL1201862

Tested on: SK-OV-3
Test: NCI tumour cell line growth inhibition, 48 h
Active and inactive are the calls of the source. No stated cut-off is given here; in the data, active = GI50 up to about 1.1 µM and inactive = higher.

{"Compound": "C/C(=N\\NC(=O)Nc1ccccc1Cl)c1ccc(O)cc1", "GI50": "> 100 µM (inactive)"}
{"Compound": "Cn1c(=O)c2nc3nnc(C#N)c(N)n3c2n(C)c1=O", "GI50": "> 100 µM (inactive)"}
{"Compound": "CC1(CC(=O)OC(C#C[Si](C)(C)C)Cc2ccccc2)OCCO1 (stereo not drawn)", "GI50": "> 100 µM (inactive)"}
{"Compound": "Cc1cc(NC(=S)Nc2ccccc2)c(NC(=S)Nc2ccccc2)cc1C", "GI50": "35 µM (inactive)"}
{"Compound": "CC(C)C(=O)Nc1nc2[nH]cnc2c(=O)[nH]1", "GI50": "> 100 µM (inactive)"}
{"Compound": "CCN(C(=O)N[C@@H](Cc1ccccc1)C(=O)N[C@@H](CC(C)C)C(=O)NC)c1ccccc1", "GI50": "> 100 µM (inactive)"}
{"Compound": "O=C1/C(=C/c2ccc(Br)cc2)CCC/C1=C\\c1ccc(Br)cc1", "GI50": "56.8 µM (inactive)"}
{"Compound": "O=C1O/C(=C\\c2ccc(O)c(Br)c2)C(c2ccc(O)c(Cl)c2)=C1Br", "GI50": "18 µM (inactive)"}

* * *

Entries and their measured GI50 follow.
System: EKVX
Experiment: NCI tumour cell line growth inhibition, 48 h
Structures can show the parent of a compound that is named as a salt. Calls of active or inactive are those of the source. Cut-off read from the data, not from the text of the source: active = GI50 up to about 1.1 µM and inactive = higher.

{"Compound": "CC(=O)OC1COC(N2c3ccccc3[C@@H]3CCc4c([nH]c5ccccc45)[C@@H]32)C(OC(C)=O)C1OC(C)=O.CC(=O)OC1COC(N2c3ccccc3[C@H]3CCc4c([nH]c5ccccc45)[C@H]32)C(OC(C)=O)C1OC(C)=O (stereo partly specified)", "System Name": "EKVX", "GI50": "19 µM (inactive)"}
{"Compound": "CCOc1ccccc1N1C(=O)C(=O)C(c2nc3ccccc3o2)/C(=N\\N)C1=O (stereo unspecified)", "System Name": "EKVX", "GI50": "> 100 µM (inactive)"}
{"Compound": "CSc1ccc(-c2cc(-c3nc4ccccc4[nH]3)nc(N)c2C#N)cc1", "System Name": "EKVX", "GI50": "20.1 µM (inactive)"}
{"Compound": "CC[C@]1(O)C[C@H]2CN(CCc3c([nH]c4ccccc34)[C@@](C(=O)OC)(c3cc4c(cc3OC)N(C=O)[C@H]3[C@@](O)(C(=O)OC)[C@H](OC(C)=O)[C@]5(CC)C=CCN6CC[C@]43[C@@H]65)C2)C1 [VINCRISTINE SULFATE]", "System Name": "EKVX", "GI50": "2.36 µM (inactive)"}
{"Compound": "Cc1ccc(S(=O)(=O)CC(=O)CC(=O)C(=O)Nc2cccc(C(F)(F)F)c2)cc1", "System Name": "EKVX", "GI50": "> 100 µM (inactive)"}
{"Compound": "O=c1oc2ccc3ccccc3c2cc1-c1cn2c(n1)sc1ccccc12", "System Name": "EKVX", "GI50": "90.8 µM (inactive)"}

* * *

Test system: SK-MEL-2
Test: NCI tumour cell line growth inhibition, 48 h
Active and inactive are the calls of the source. Cut-off read from the data, not from the text of the source: active = GI50 up to about 1.1 µM and inactive = higher.

{"Molecule": "CNc1ccc(C(=O)CC(O)CCC(C)C2OC(=O)CC(O)CC(=O)CC(O)CC(O)CC(O)CC(O)CC3(O)CC(O)C(C(=O)N4CCOCC4)C(CC(OC4OC(C)C(O)C(N)C4O)\\C=C/C=C\\C=C/C=C/C=C/C=C\\C=C/C2C)O3)cc1 (centres undefined)", "GI50": "0.421 µM (active)"}
{"Molecule": "O=C1OC(c2ccc([N+](=O)[O-])cc2)=N/C1=C\\c1ccc(O)cc1", "GI50": "> 100 µM (inactive)"}
{"Molecule": "Cn1cc(NC(=O)c2cc(NC(=O)CNC(=N)N)cn2C)cc1C(=O)NCCC(=N)N [NETROPSIN CHLORIDE]", "GI50": "> 100 µM (inactive)"}
{"Molecule": "COC1OC(COC(=O)NCCCCC(=O)C(F)(F)F)C(O)C(O)C1O (centres undefined)", "GI50": "> 100 µM (inactive)"}
